Catalogue of pKd values
Target: Gal-1 (Homo sapiens)
Construct: made in house; host or cells: E. coli BL21(DE3)
Sequence (P09382 whole entry): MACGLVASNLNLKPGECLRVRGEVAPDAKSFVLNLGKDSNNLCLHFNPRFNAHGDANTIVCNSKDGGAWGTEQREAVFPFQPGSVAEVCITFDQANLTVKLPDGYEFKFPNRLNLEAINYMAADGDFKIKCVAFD
Experiment: Pull-down assay with immobilized protein and LSM libraries
Assay type: binding
Details: H14 library; 1:1 binding assumed; read-out: Surface mapping KD (apparent)
pKd: −log10 of the molar value.

# Input smiles, pKd
measured = [
    ("C[C@@H](O)[C@@H](CC(=O)N[C@H]1CCCC[C@@H]1C(N)=O)NC(=O)[C@H]1CCCC[C@@H]1NC(=O)[C@H]1CCCC[C@@H]1NC(=O)C[C@@H](NC(=O)[C@H]1CCCC[C@@H]1N)[C@@H](C)O", 3.44),
    ("CC[C@H](C)[C@@H](CC(=O)N[C@H]1CCCC[C@@H]1C(=O)N[C@H]1CCCC[C@@H]1C(=O)N[C@H](CC(=O)N[C@H]1CCCC[C@@H]1C(N)=O)[C@@H](C)O)NC(=O)[C@H]1CCCC[C@@H]1N", 3.73),
    ("CC(C)C[C@@H](CC(=O)N[C@H]1CCCC[C@@H]1C(=O)N[C@H]1CCCC[C@@H]1C(=O)N[C@H](CC(=O)N[C@H]1CCCC[C@@H]1C(N)=O)Cc1ccccc1)NC(=O)[C@H]1CCCC[C@@H]1N", 4.60),
    ("CC[C@H](C)[C@@H](CC(=O)N[C@H]1CCCC[C@@H]1C(=O)N[C@H]1CCCC[C@@H]1C(=O)N[C@H](CC(=O)N[C@H]1CCCC[C@@H]1C(N)=O)Cc1ccc(O)cc1)NC(=O)[C@H]1CCCC[C@@H]1N", 3.59),
    ("C[C@@H](CC(=O)N[C@H]1CCCC[C@@H]1C(=O)N[C@H]1CCCC[C@@H]1C(=O)N[C@H](CC(=O)N[C@H]1CCCC[C@@H]1C(N)=O)[C@@H](C)O)NC(=O)[C@H]1CCCC[C@@H]1N", 3.35),
]

* * *

Catalogue of pKd values
Molecular target: CaM (Bos taurus)
Construct: made in house; host or cells: E. coli BL21 (DE3)
Experiment: Pull-down assay with immobilized protein and LSM libraries
Assay type: binding, bovine
Details: H14 library; 1:2 stoichiometry assumed; read-out: Surface mapping KD (apparent)
pKd: −log10 of the molar value.

# Input smiles, Study system, pKd
data = [
    ("NC(=O)CC[C@@H](CC(=O)N[C@H]1CCCC[C@@H]1C(N)=O)NC(=O)[C@H]1CCCC[C@@H]1NC(=O)[C@H]1CCCC[C@@H]1NC(=O)C[C@H](CC(N)=O)NC(=O)[C@H]1CCCC[C@@H]1N", "CaM (Bos taurus)", 3.72),
    ("NC(=O)CC[C@@H](CC(=O)N[C@H]1CCCC[C@@H]1C(N)=O)NC(=O)[C@H]1CCCC[C@@H]1NC(=O)[C@H]1CCCC[C@@H]1NC(=O)C[C@H](CCC(N)=O)NC(=O)[C@H]1CCCC[C@@H]1N", "CaM (Bos taurus)", 3.73),
    ("CC(C)[C@@H](CC(=O)N[C@H]1CCCC[C@@H]1C(=O)N[C@H]1CCCC[C@@H]1C(=O)N[C@H](CC(=O)N[C@H]1CCCC[C@@H]1C(N)=O)Cc1ccccc1)NC(=O)[C@H]1CCCC[C@@H]1N", "CaM (Bos taurus)", 5.30),
    ("NC(=O)[C@H]1CCCC[C@@H]1NC(=O)C[C@H](Cc1ccc(O)cc1)NC(=O)[C@H]1CCCC[C@@H]1NC(=O)[C@H]1CCCC[C@@H]1NC(=O)C[C@H](CO)NC(=O)[C@H]1CCCC[C@@H]1N", "CaM (Bos taurus)", 4.05),
    ("CC(C)[C@@H](CC(=O)N[C@H]1CCCC[C@@H]1C(=O)N[C@H]1CCCC[C@@H]1C(=O)N[C@@H](CCCCN)CC(=O)N[C@H]1CCCC[C@@H]1C(N)=O)NC(=O)[C@H]1CCCC[C@@H]1N", "CaM (Bos taurus)", 4.17),
    ("CSCC[C@@H](CC(=O)N[C@H]1CCCC[C@@H]1C(N)=O)NC(=O)[C@H]1CCCC[C@@H]1NC(=O)[C@H]1CCCC[C@@H]1NC(=O)C[C@@H](NC(=O)[C@H]1CCCC[C@@H]1N)[C@@H](C)O", "CaM (Bos taurus)", 4.34),
    ("CC[C@H](C)[C@@H](CC(=O)N[C@H]1CCCC[C@@H]1C(N)=O)NC(=O)[C@H]1CCCC[C@@H]1NC(=O)[C@H]1CCCC[C@@H]1NC(=O)C[C@H](C)NC(=O)[C@H]1CCCC[C@@H]1N", "CaM (Bos taurus)", 4.89),
    ("CC(C)[C@@H](CC(=O)N[C@H]1CCCC[C@@H]1C(=O)N[C@H]1CCCC[C@@H]1C(=O)N[C@H](CC(=O)N[C@H]1CCCC[C@@H]1C(N)=O)[C@@H](C)O)NC(=O)[C@H]1CCCC[C@@H]1N", "CaM (Bos taurus)", 3.85),
    ("CC(C)C[C@@H](CC(=O)N[C@H]1CCCC[C@@H]1C(N)=O)NC(=O)[C@H]1CCCC[C@@H]1NC(=O)[C@H]1CCCC[C@@H]1NC(=O)C[C@H](CCC(N)=O)NC(=O)[C@H]1CCCC[C@@H]1N", "CaM (Bos taurus)", 4.06),
]
